- assay details: Liver Microsome Stability Assay (mouse)
- cond: mouse liver microsomes, with NADPH, 1.0 uM compound
Each entry gets not met if its Liver Microsome Stability (Multiple Species): Mouse - % Remaining after 30 min w/NADPH stays under 10%, and met if its Liver Microsome Stability (Multiple Species): Mouse - % Remaining after 30 min w/NADPH is 10% or above.

* CN(C)C(=O)c1ccc(N2CCC[C@@H]2c2csc(NC(=O)c3cccn3Cc3ccncc3)n2)cc1 | not met
* O=C(Nc1ccccn1)c1csc(NC(=O)c2cccn2Cc2ccncc2)n1 | not met
* O=C(Nc1nc(/C=C/c2cn(C3CCOCC3)cn2)cs1)c1cccn1Cc1ccnc(F)c1 | not met
* CC(=O)N1CCC(Oc2ccc(N3CCC[C@@H]3c3csc(NC(=O)c4cccn4Cc4ccnc(F)c4)n3)cc2)C(F)C1 (stereo partly shown) | met
* CC(C)c1ccc(/C=C/c2csc(NC(=O)c3cccn3Cc3cc(F)nc(F)c3)n2)nc1 | not met
* CC(C)Oc1ccc(N2CCC[C@@H]2c2csc(NC(=O)c3cccn3Cc3ccncc3)n2)cc1 | met
* CC(c1ccncc1)n1cccc1C(=O)Nc1nc([C@H]2CCCN2c2ccccc2)cs1 (stereo partly shown) | not met
* C#CCCCCn1cccc1C(=O)Nc1nc([C@H]2CCCN2c2ccccc2)cs1 | met
* O=C(Nc1nc([C@H]2CCCN2c2ccc(OC3=CCNCC3)cc2)cs1)c1cccn1Cc1ccnc(F)c1 | met
* O=C(Nc1nc([C@H]2CCCN2c2ccccc2)cs1)c1cccn1Cc1cccc(Br)c1 | met
* O=C(Nc1nc([C@H]2CCN(c3ccccn3)C2)cs1)c1cccn1Cc1ccncc1 | not met
* NC(=O)N1CCC(Oc2ccc(N3CCC[C@@H]3c3csc(NC(=O)c4cccn4Cc4ccnc(F)c4)n3)cc2)CC1 | met
* O=C(Nc1nc(CCc2coc(-c3ccccc3)n2)cs1)c1cccn1Cc1ccncc1 | not met
* CC(=O)N1CCC(c2ccc(N3CCC[C@@H]3c3csc(NC(=O)c4cccn4Cc4ccncc4)n3)cc2)CC1 | met
* CC(=O)NCCOc1ccc(N2CCC[C@@H]2c2csc(NC(=O)c3cccn3Cc3ccnc(F)c3)n2)cc1 | not met
* C[C@@H](O)c1ccc(N2CCC[C@@H]2c2csc(NC(=O)c3cccn3Cc3ccnc(F)c3)n2)cc1 | met
* CC(=O)N1CC(Oc2ccc(N3CCC[C@@H]3c3csc(NC(=O)c4cccn4Cc4ccnc(F)c4)n3)cc2)C1 | met
* O=C(Nc1nc(/C=C/c2ccc3c(n2)CCCC3)cs1)c1cccn1Cc1ccnc(F)c1 | not met
* O=C(Nc1nc(/C=C/c2coc(C3CC3)n2)cs1)c1cccn1Cc1ccncc1 | not met
* C[S+]([O-])N1CC(Oc2ccc(N3CCC[C@@H]3c3csc(NC(=O)c4cccn4Cc4ccnc(F)c4)n3)cc2)C1 (stereo partly shown) | not met
* C[C@@H](N)c1ccc(N2CCC[C@@H]2c2csc(NC(=O)c3cccn3Cc3ccncc3)n2)cc1 | met
* O=C(Nc1nc([C@H]2CCCN2c2ccc(F)cc2)cs1)c1cccn1Cc1ccncc1 | not met
* Cc1cccc(/C=C/c2csc(NC(=O)c3cccn3Cc3ccnc(F)c3)n2)n1 | not met
* CNC(=O)N1CCC(Oc2ccc(N3CCC[C@@H]3c3csc(NC(=O)c4cccn4Cc4ccnc(F)c4)n3)cc2)CC1 | not met
* CC(=O)N1CCC(Nc2ccc(N3CCC[C@@H]3c3csc(NC(=O)c4cccn4Cc4ccnc(F)c4)n3)cc2)CC1 | not met
* O=C(Nc1ccc(N2CCC[C@@H]2c2csc(NC(=O)c3cccn3Cc3ccnc(F)c3)n2)cc1)O[C@H]1CCOC1 | met
* O=C(Nc1nc(/C=C/C2CN(c3ccccc3)CCO2)cs1)c1cccn1Cc1ccncc1 (stereo not shown) | not met
* O=C(Nc1nc([C@H]2CCCN2c2ccccc2)cs1)c1cccn1Cc1ccc(=O)[nH]c1 | met
* CC(C)n1cnc(/C=C/c2csc(NC(=O)c3cccn3Cc3ccncc3)n2)c1 | not met
* CC(C)c1nc(/C=C/c2csc(NC(=O)c3cccn3Cc3ccncc3)n2)co1 | not met
* O=C(Nc1nc([C@H]2CCCN2c2ccccc2)cs1)c1cccn1CC1CCCCC1 | met

Values were extracted from patent US20230286973A1.
